B1: ALKBH7 (parent)
chain: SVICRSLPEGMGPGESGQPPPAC

# Variants of: B1
# Assay comment: protein stability index of a GFP-peptide fusion (GPS, HEK-293T) (PSI 1-6); higher = more stable;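 also: lentivirally expressed fusions sorted by FACS into six bins by GFP to DsRed ratio, PSI derived from sequencing read proportions per bin multiplied by bin number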
# Measurement parameters: c terminus: native
Measured metric: protein stability index
No unit in the answer, only the number.

Here's what some known entries look like.
| Variant description | Value reported |
| --- | --- |
| R5M | 1.8 |
| E15D | 2.44 |
| G10K | 1.91 |
| C4G | 1.79 |

Task item: Query (variant): `P8H` ; field requested: protein stability index
Reply: 2.94

Task item: Field request: protein stability index | item: `L7S`
Reply: 2.14

Task item: Given `P19W` , state its recorded protein stability index.
Reply: 2.26

Task item: For `A22W` , what is its reported protein stability index?
Reply: 4.77

Task item: Sample `S1E` — what was its protein stability index?
Reply: 3.06
